# System: RAW264.7 cells
# PROTOCOL TEXT: RANKL-induced osteoclast differentiation, TRAP staining
# Type: cell-based, murine
# TEST CONDITIONS: all models tested
MEASUREMENT LABEL: osteoclast maturation and activity

# SUBSTANCE, MEASUREMENT LABEL, REPORTED VALUE
data = [
    ("miR-141: miRNA, SEQ ID NO: 69; delivered as pre-miRNA precursor; targets Mitf and Calcr (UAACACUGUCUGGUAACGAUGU; delivered as pre-miRNA precursor, chemistry not given here; listed as Homo sapiens)", "osteoclast maturation and activity", "strongly inhibit"),
    ("miR-219: miRNA, SEQ ID NO: 66; delivered as pre-miRNA precursor; targets Mitf and Traf6 (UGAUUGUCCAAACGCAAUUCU; delivered as pre-miRNA precursor, chemistry not given here; listed as Homo sapiens)", "osteoclast maturation and activity", "strongly inhibit"),
    ("miR-133a: miRNA, SEQ ID NO: 61; delivered as pre-miRNA precursor; targets Mitf and Mmp14 (UUUGGUCCCCUUCAACCAGCUA; delivered as pre-miRNA precursor, chemistry not given here; listed as Homo sapiens)", "osteoclast maturation and activity", "strongly inhibit"),
]
